The values you see were collected from PubChem BioAssay (EPA / NIEHS).

Assay: CCTE_Shafer_MEA_acute_network_burst_percentage: CCTE's Neural Acute Assay for Percentage of Network Bursts, Shafer Lab (AID 2284022);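 also: curves fitted for loss so actives lower network burst percentage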
Activity calls are given as the source filed them. The calls were made as follows: active = hit-call score of the fitted dose curve at least 0.9, where 1 is the maximum; inactive = score below 0.9.
Just give me one of these, please: active, inactive

Input: Entry COCC(=O)N(c1c(C)cccc1C)C(C)C(=O)OC (stereo unspecified) : call = ?
Output: inactive

Input: Entry CCCC(=NOCC)C1=C(O)CC(CC(C)SCC)CC1=O (stereo unspecified) : call = ?
Output: inactive

Input: Entry CO/N=C(/C1=NOCCO1)c1ccccc1Oc1ncnc(Oc2ccccc2Cl)c1F : call = ?
Output: inactive

Input: Entry Cc1ccc(N=CN(C)C=Nc2ccc(C)cc2C)c(C)c1 : call = ?
Output: active

Input: Entry CC(C)N1C(=O)c2ccccc2NS1(=O)=O : call = ?
Output: inactive

Input: Entry Cc1c(COC(=O)[C@@H]2[C@H](/C=C(\Cl)C(F)(F)F)C2(C)C)cccc1-c1ccccc1 : call = ?
Output: active
